# Phytotoxicity Ze values compiled below
System: corn (Ze)
Test: Test Example 7: crop plant selectivity by upland field soil treatment (corn), phytotoxicity
Assay type: in vivo
Design: scale not given here
Details: dose 6.3 g ai/10a, 21st day after application
Description: (Test on Crop Plant Selectivity by Upland Field Soil Treatment) In a plastic pot (surface area: 600 cm^2) filled with sand, corn (Ze), green foxtail (Se), pale smartweed (Po), slender amaranth (Am), common lambsquarters (Ch) and China jute (Ab) were sown and covered with soil. […]
Measured Metric: Phytotoxicity Ze

> print(dat)
                           molecular.string   measured.metric  result.value
1  Cn1c(C(F)(F)F)ccc(-c2c(F)cc(Cl)c3oc(CBr)cc23)c1=O  Phytotoxicity Ze             2
2  Cn1c(C(F)(F)F)ccc(-c2cc(C#N)c(Cl)cc2F)c1=O  Phytotoxicity Ze             1
3  CCCON=Cc1cc(-c2ccc(C(F)(F)F)n(C)c2=O)c(F)cc1Cl  Phytotoxicity Ze             0
4  COCCOCOc1cc(-c2ccc(C(F)(F)F)n(C)c2=O)c(F)cc1Cl  Phytotoxicity Ze             1
5  CCCOc1cc(-c2ccc(C(F)(F)F)n(C)c2=O)c(F)cc1Cl  Phytotoxicity Ze             1

###

# Phytotoxicity Ze values compiled below
tested on: corn (Ze); assay: Test Example 7: crop plant selectivity by upland field soil treatment (corn), phytotoxicity; type: in vivo; design: scale not given here; settings: dose 6.3 g ai/10a, 21st day after application
Measured Metric: Phytotoxicity Ze

> print(dat)
                                    compound  result.value
 1  C=CC(O)c1cc(-c2ccc(C(F)(F)F)n(C)c2=O)c(F)cc1Cl (stereo not drawn)             1
 2  CCOC(=O)CON=Cc1cc(-c2ccc(C(F)(F)F)n(C)c2=O)c(F)cc1Cl             1
 3  Cc1cc2c(-c3ccc(C(F)(F)F)n(C)c3=O)c(F)cc(Cl)c2o1             1
 4  C#CC(C)Oc1cc(-c2ccc(C(F)(F)F)n(C)c2=O)c(F)cc1Cl (stereo not drawn)             1
 5  CSCOc1cc(-c2ccc(C(F)(F)F)n(C)c2=O)c(F)cc1Cl             1
 6  C=CC(C)Oc1cc(-c2ccc(C(F)(F)F)n(C)c2=O)c(F)cc1Cl (stereo not drawn)             1
 7  CCOC(=O)c1cc(-c2ccc(C(F)(F)F)n(C)c2=O)c(F)cc1Cl             2
 8  C#CC(C)Oc1cc(Cl)cc(F)c1-c1ccc(C(F)(F)F)n(C)c1=O (stereo not drawn)             2
 9  CCC(C)Oc1cc(-c2ccc(C(F)(F)F)n(C)c2=O)c(F)cc1Cl (stereo not drawn)             0
10  CC(C)C(=O)c1cc(-c2ccc(C(F)(F)F)n(C)c2=O)c(F)cc1Cl             1
11  CON=C(C)c1cc(-c2ccc(C(F)(F)F)n(C)c2=O)c(F)cc1Cl             2
12  C=CCN1C(=O)COc2cc(Cl)c(-c3ccc(C(F)(F)F)n(C)c3=O)cc21             1
13  Cn1c(C(F)(F)F)ccc(-c2cc(OCC#N)c(Cl)cc2F)c1=O             1
14  C#CC(CC)Oc1cc(-c2ccc(C(F)(F)F)n(C)c2=O)c(F)cc1Cl (racemic)             1
15  COCSc1cc(-c2ccc(C(F)(F)F)n(C)c2=O)c(F)cc1Cl             2
16  Cn1c(C(F)(F)F)ccc(-c2c(F)cc(Cl)c3oc(CO)cc23)c1=O             0
17  C#CCOc1cc(-c2ccc(C(F)(F)F)n(C)c2=O)c(Cl)cc1Cl             2
18  COCc1cc2c(-c3ccc(C(F)(F)F)n(C)c3=O)c(F)cc(Cl)c2o1             2

###

# Herbicidal effects Ec values compiled below
tested on: barnyardgrass (Ec); experiment: Test Example 2: herbicidal effects by upland field soil treatment; assay type: in vivo; conditions: 100 g of the active ingredient per 10 ares, 21st day after the application, index 0-5 of Table 47;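 note: grade of growth control; 5 = at least 90%; 4 = 70 to 90%; 3 = 50 to 70%; 2 = 30 to 50%; 1 = 10 to 30%; 0 = under 10%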
Measured Metric: Herbicidal effects Ec

> print(dat)
                                    molecule         measured.on        measured.metric  result.value
 1  Cn1c(C(F)(F)F)ccc(-c2cc(OCC(=O)O)c(Cl)cc2F)c1=O [1-105]  barnyardgrass (Ec)  Herbicidal effects Ec             5
 2  Cn1c(C(F)(F)F)ccc(-c2ccc(Cl)cc2Cl)c1=O [1-3]  barnyardgrass (Ec)  Herbicidal effects Ec             5
 3  Cn1c(C(F)(F)F)ccc(-c2cc([S+](C)[O-])c(Cl)cc2F)c1=O (centres unmarked) [Compound No. 1-88]  barnyardgrass (Ec)  Herbicidal effects Ec             4
 4  Cn1c(C(F)(F)F)ccc(-c2cc(C(=O)OCCBr)c(Cl)cc2F)c1=O [1-134]  barnyardgrass (Ec)  Herbicidal effects Ec             5
 5  Cn1c(C(F)(F)F)ccc(-c2cc(CO)c(Cl)cc2F)c1=O [1-135]  barnyardgrass (Ec)  Herbicidal effects Ec             5
 6  COCOc1cc(-c2ccc(C(F)(F)F)n(C)c2=O)c(Cl)cc1Cl [1-38]  barnyardgrass (Ec)  Herbicidal effects Ec             5
 7  CCCCOC(=O)COc1cc(-c2ccc(C(F)(F)F)n(C)c2=O)c(F)cc1Cl [1-148]  barnyardgrass (Ec)  Herbicidal effects Ec             5
 8  CCCOc1cc(-c2ccc(C(F)(F)F)n(C)c2=O)c(F)cc1Cl [1-154]  barnyardgrass (Ec)  Herbicidal effects Ec             5
 9  CCCCOc1cc(-c2ccc(C(F)(F)F)n(C)c2=O)c(F)cc1Cl [1-166]  barnyardgrass (Ec)  Herbicidal effects Ec             5
10  Cn1c(C(F)(F)F)ccc(-c2cc(Cl)c(Cl)cc2F)c1=O [1-136]  barnyardgrass (Ec)  Herbicidal effects Ec             5
11  Cn1c(C(F)(F)F)ccc(-c2ccc(Cl)cc2F)c1=O [Compound No. 1-2]  barnyardgrass (Ec)  Herbicidal effects Ec             5
12  CCCOC(=O)c1cc(-c2ccc(C(F)(F)F)n(C)c2=O)c(F)cc1Cl [1-158]  barnyardgrass (Ec)  Herbicidal effects Ec             5
13  Cc1cc(-c2ccc(Cl)cc2Cl)c(=O)n(C)c1C(F)(F)F [Compound No. 1-11]  barnyardgrass (Ec)  Herbicidal effects Ec             5
14  Cn1c(C(F)(F)F)ccc(-c2cc(OCC(F)(F)F)c(Cl)cc2F)c1=O [1-155]  barnyardgrass (Ec)  Herbicidal effects Ec             5
15  CCCC(Oc1cc(-c2ccc(C(F)(F)F)n(C)c2=O)c(F)cc1Cl)C(=O)OCC (racemic) [1-121]  barnyardgrass (Ec)  Herbicidal effects Ec             5
16  Cn1c(C(F)(F)F)ccc(-c2cc(C(=O)O)c(Cl)cc2F)c1=O [Compound No. 1-141]  barnyardgrass (Ec)  Herbicidal effects Ec             4
17  CCOc1cc(-c2ccc(C(F)(F)F)n(C)c2=O)c(F)cc1Cl [1-150]  barnyardgrass (Ec)  Herbicidal effects Ec             5
18  Cc1cc(-c2cc(OC(C)C)c(Cl)cc2F)c(=O)n(C)c1C(F)(F)F [1-80]  barnyardgrass (Ec)  Herbicidal effects Ec             5
19  Cn1c(C(F)(F)F)ccc(-c2cc(Oc3ncccn3)c(Cl)cc2Cl)c1=O [1-41]  barnyardgrass (Ec)  Herbicidal effects Ec             5
20  C#CCOc1cc(-c2ccc(C(F)(F)F)n(C)c2=O)c(F)cc1Cl [1-18]  barnyardgrass (Ec)  Herbicidal effects Ec             5
21  CCOC(=O)C(C)OC(=O)c1cc(-c2ccc(C(F)(F)F)n(C)c2=O)c(F)cc1Cl (racemic) [1-143]  barnyardgrass (Ec)  Herbicidal effects Ec             5
22  CC(C)COc1cc(-c2ccc(C(F)(F)F)n(C)c2=O)c(F)cc1Cl [1-168]  barnyardgrass (Ec)  Herbicidal effects Ec             5
23  C#CCNc1cc(-c2ccc(C(F)(F)F)n(C)c2=O)c(F)cc1Cl [1-62]  barnyardgrass (Ec)  Herbicidal effects Ec             5
24  C#CCOc1cc(-c2ccc(C(F)(F)F)n(C)c2=O)ccc1Cl [1-106]  barnyardgrass (Ec)  Herbicidal effects Ec             5
25  C#CCOc1cc(-c2cc(C)c(C(F)(F)F)n(C)c2=O)c(F)cc1Cl [Compound No. 1-76]  barnyardgrass (Ec)  Herbicidal effects Ec             5
26  CC(C)Sc1cc(-c2ccc(C(F)(F)F)n(C)c2=O)c(F)cc1Cl [1-43]  barnyardgrass (Ec)  Herbicidal effects Ec             5
27  COC(=O)COc1cc(-c2ccc(C(F)(F)F)n(C)c2=O)c(F)cc1Cl [1-99]  barnyardgrass (Ec)  Herbicidal effects Ec             5
28  CSc1cc(-c2ccc(C(F)(F)F)n(C)c2=O)c(F)cc1Cl [Compound No. 1-87]  barnyardgrass (Ec)  Herbicidal effects Ec             5
29  Cn1c(C(F)(F)F)ccc(-c2cc(C=NO)c(Cl)cc2F)c1=O [1-164]  barnyardgrass (Ec)  Herbicidal effects Ec             5
30  Cn1c(C(F)(F)F)ccc(-c2cc(NS(C)(=O)=O)c(Cl)cc2F)c1=O [Compound No. 1-60]  barnyardgrass (Ec)  Herbicidal effects Ec             5
31  COC(=O)c1cc(-c2ccc(C(F)(F)F)n(C)c2=O)c(F)cc1Cl [1-157]  barnyardgrass (Ec)  Herbicidal effects Ec             5
32  CC(C)OC(=O)c1cc(-c2ccc(C(F)(F)F)n(C)c2=O)c(F)cc1Cl [Compound No. 1-66]  barnyardgrass (Ec)  Herbicidal effects Ec             5
